System: human fibrosarcoma HT1080 cells
assay_procedure: Dose response of 1,4-naphthoquinone analogs in human fibrosarcoma cells HT1080 (WST-1, 24 h)
Format: cell-based
condition_label: 1.2 μM
measured_quantity: proliferation of human fibrosarcoma HT1080 cells, percent of control

Report proliferation of human fibrosarcoma HT1080 cells, percent of control for O=C1C=C(Oc2c(F)c(F)c(F)c(F)c2F)C(=O)c2ccccc21 [Analog F02] please. 84.28% of control

Tell me the measured proliferation of human fibrosarcoma HT1080 cells, percent of control of COc1ccc(OC2=CC(=O)c3ccccc3C2=O)cc1 [Analog F05, 2-(4-methoxyphenoxy)-1,4-naphthoquinone] , please. 81.04% of control

Item CC(=O)Nc1ccc(OC2=CC(=O)c3ccccc3C2=O)cc1 [Analog F03] has what recorded proliferation of human fibrosarcoma HT1080 cells, percent of control? 81.33% of control

Recorded proliferation of human fibrosarcoma HT1080 cells, percent of control for O=C1C=C(Oc2ccc(OCc3ccccc3)cc2)C(=O)c2ccccc21 [Analog F06] , please? 82.93% of control

Form field: reported proliferation of human fibrosarcoma HT1080 cells, percent of control of O=C1C=C(Oc2ccccc2)C(=O)c2ccccc21 [Analog F01, 2-phenoxy-1,4-naphthoquinone] 85.21% of control

Consider the compound shown here: O=C1C=C(Oc2c(F)cc(F)cc2F)C(=O)c2ccccc21 [Analog F04] What is its recorded proliferation of human fibrosarcoma HT1080 cells, percent of control? 87.77% of control

For the compound Cc1cc(Cl)ccc1OC1=CC(=O)c2ccccc2C1=O [Analog F07] , what proliferation of human fibrosarcoma HT1080 cells, percent of control is on record? 85.35% of control
